target: Dual specificity tyrosine-phosphorylation-regulated kinase 1A (Homo sapiens, UniProt Q13627)
pIC50: −log10 of the molar value.
Could you label it class 1 if measured pIC50 is 7 or higher, and class 0 otherwise?

These solved cases illustrate the format of a correct answer.
- MOLECULE: "O=C(O[C@@H]1Cc2c(O)cc(O)cc2O[C@H]1c1cc(O)c(O)c(O)c1F)c1cc(O)c(O)c(O)c1F"
  LABEL CLASS: "class 1"
- MOLECULE: "O=C(O[C@@H]1Cc2ccccc2O[C@H]1c1cc(O)c(O)c(O)c1)c1cc(O)c(O)c(O)c1 (racemic)"
  LABEL CLASS: "class 0"
- MOLECULE: "COc1cc(C(=O)O[C@@H]2Cc3c(O)cc(O)cc3O[C@@H]2c2cc(O)c(O)c(O)c2)cc(O)c1O"
  LABEL CLASS: "class 0"
- MOLECULE: "Cc1c(C(=O)O[C@@H]2Cc3c(O)cc(O)cc3O[C@H]2c2cc(O)c(O)c(O)c2)ccc(O)c1O"
  LABEL CLASS: "class 0"
- MOLECULE: "O=C(O[C@@H]1Cc2c(O)cc(O)cc2O[C@H]1c1cc(O)c(O)c(O)c1)c1ccc(O)c(O)c1"
  LABEL CLASS: "class 0"
- MOLECULE: "COc1c(O)cc(C(=O)O[C@@H]2Cc3c(O)cc(O)cc3O[C@H]2c2cc(O)c(O)c(O)c2)cc1O"
  LABEL CLASS: "class 0"
- MOLECULE: "O=C(O[C@@H]1Cc2ccccc2C[C@H]1c1cc(O)c(O)c(O)c1)c1cc(O)c(O)c(O)c1 (racemic)"
  LABEL CLASS: "class 0"

// switching to the query molecule
Lookup: Given O=C(O[C@@H]1Cc2c(O)cc(O)cc2O[C@H]1c1cc(O)c(O)c(O)c1F)c1cc(O)c(O)c(O)c1 , state whether its pIC50 is at least 7.
Found: class 1
